ASSAYED SYSTEM: human F508del-CFTR (Homo sapiens, UniProt P13569, DEL508-508)
Sequence (P13569 with tags, fused parts or gaps DEL508-508): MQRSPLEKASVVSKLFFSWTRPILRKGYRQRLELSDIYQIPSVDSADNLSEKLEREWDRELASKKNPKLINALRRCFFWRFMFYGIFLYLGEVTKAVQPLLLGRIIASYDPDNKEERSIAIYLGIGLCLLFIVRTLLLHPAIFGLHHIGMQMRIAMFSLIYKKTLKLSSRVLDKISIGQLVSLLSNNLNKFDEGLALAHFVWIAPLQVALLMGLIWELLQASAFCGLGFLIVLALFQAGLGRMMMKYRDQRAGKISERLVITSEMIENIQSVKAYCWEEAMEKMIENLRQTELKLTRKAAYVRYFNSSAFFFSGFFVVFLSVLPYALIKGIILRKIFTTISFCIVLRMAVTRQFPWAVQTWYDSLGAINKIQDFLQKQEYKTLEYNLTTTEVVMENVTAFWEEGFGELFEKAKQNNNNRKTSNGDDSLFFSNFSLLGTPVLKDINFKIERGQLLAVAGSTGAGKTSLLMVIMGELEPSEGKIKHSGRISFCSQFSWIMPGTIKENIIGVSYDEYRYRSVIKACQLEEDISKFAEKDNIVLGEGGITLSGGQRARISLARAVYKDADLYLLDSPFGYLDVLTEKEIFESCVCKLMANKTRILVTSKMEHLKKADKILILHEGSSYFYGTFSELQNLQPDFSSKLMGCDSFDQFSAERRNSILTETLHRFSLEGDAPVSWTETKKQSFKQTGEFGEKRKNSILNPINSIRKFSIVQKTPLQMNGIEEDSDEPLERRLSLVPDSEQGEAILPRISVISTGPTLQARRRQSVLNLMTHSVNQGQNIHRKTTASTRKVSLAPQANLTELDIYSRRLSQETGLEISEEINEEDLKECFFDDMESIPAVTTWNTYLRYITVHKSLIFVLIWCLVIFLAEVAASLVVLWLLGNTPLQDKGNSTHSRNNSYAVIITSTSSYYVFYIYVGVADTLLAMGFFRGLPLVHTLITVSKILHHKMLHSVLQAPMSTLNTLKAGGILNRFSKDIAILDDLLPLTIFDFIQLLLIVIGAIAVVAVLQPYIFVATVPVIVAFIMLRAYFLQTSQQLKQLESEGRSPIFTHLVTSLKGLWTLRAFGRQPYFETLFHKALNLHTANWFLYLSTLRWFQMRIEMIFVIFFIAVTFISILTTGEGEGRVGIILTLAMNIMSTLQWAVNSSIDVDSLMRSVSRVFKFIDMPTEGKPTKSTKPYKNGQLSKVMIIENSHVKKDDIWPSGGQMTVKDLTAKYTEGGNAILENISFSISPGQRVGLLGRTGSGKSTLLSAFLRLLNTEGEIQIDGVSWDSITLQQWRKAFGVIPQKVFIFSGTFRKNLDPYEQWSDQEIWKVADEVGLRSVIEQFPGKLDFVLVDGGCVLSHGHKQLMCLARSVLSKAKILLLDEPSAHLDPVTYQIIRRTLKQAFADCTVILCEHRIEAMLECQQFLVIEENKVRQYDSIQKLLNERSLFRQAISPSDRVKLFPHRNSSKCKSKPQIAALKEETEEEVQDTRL
TEST NAME: F508del-CFTR cell surface expression (corrector activity), DiscoveRx ß-galactosidase complementation chemiluminescence assay in recombinant U2OS cell line
TEST SETTINGS: EC50, F508del-CFTR cell surface expression, U2OS cells, 16h compound incubation; geomean values
pEC50: −log10 of the molar value.
MEASURED ATTRIBUTE: pEC50

[[record]]
compound = "CC(C)C[C@H]1C(=O)N(C)C2(CC2)C(=O)N[C@H](Cc2ccccc2)COc2cnc3ccccc3c2C(=O)N[C@H](C(=O)NCCc2cccc(-c3ncccn3)c2)CC(=O)N1C"
assayed_system = "human F508del-CFTR (Homo sapiens, UniProt P13569, DEL508-508)"
reported_measurement = 6.12

[[record]]
compound = "CC(C)C[C@H]1C(=O)N2CCCC[C@@H]2C(=O)N[C@H](Cc2ccccc2)COc2ccc3ncc(F)cc3c2C(=O)N[C@H](C(=O)NCCn2ncc(C3CC3)n2)CC(=O)N1C"
assayed_system = "human F508del-CFTR (Homo sapiens, UniProt P13569, DEL508-508)"
reported_measurement = 6.85

[[record]]
compound = "CC(C)C[C@H]1C(=O)N(C)[C@H](C)C(=O)N[C@H](Cc2ccccc2)COc2ccc3nccn3c2C(=O)N[C@H](C(=O)NCCc2cc(C3CC3)no2)CC(=O)N1C"
assayed_system = "human F508del-CFTR (Homo sapiens, UniProt P13569, DEL508-508)"
reported_measurement = 6.19

[[record]]
compound = "Cc1cc(CCNC(=O)[C@@H]2CC(=O)N(C)[C@@H](CC(C)C)C(=O)N(CCC3CCCCC3)CC(=O)N[C@H](Cc3ccccc3)COc3cnc4c(F)cccc4c3C(=O)N2)on1"
assayed_system = "human F508del-CFTR (Homo sapiens, UniProt P13569, DEL508-508)"
reported_measurement = 6.86

[[record]]
compound = "COc1nc(C)cc2c1C(=O)N[C@H](C(=O)NCCc1cc(C3CC3)on1)CC(=O)N(C)[C@@H](CC(C)C)C(=O)N1CCCC[C@@H]1C(=O)N[C@H](Cc1ccccc1)CO2"
assayed_system = "human F508del-CFTR (Homo sapiens, UniProt P13569, DEL508-508)"
reported_measurement = 6.47


====

ASSAYED SYSTEM: human F508del-CFTR (Homo sapiens, UniProt P13569, DEL508-508)
TEST NAME: F508del-CFTR cell surface expression (corrector activity), DiscoveRx ß-galactosidase complementation chemiluminescence assay in recombinant U2OS cell line;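 note: U2OS cells co-expressing ProLink-tagged F508del-CFTR and a membrane-anchored enzyme acceptor, where more surface CFTR restores β-galactosidase activity measured by chemiluminescence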
TEST SETTINGS: U2OS, in relation to the Emax of the corrector lumacaftor (=100%); U2OS cells, 16h compound incubation; arithmetic mean
MEASURED ATTRIBUTE: Emax (%)

[[record]]
compound = "COc1cc(CCNC(=O)[C@@H]2CC(=O)N(C)[C@@H](CC(C)C)C(=O)N(C)[C@H](CC3CC3)C(=O)N[C@H](Cc3ccccc3)COc3cc(C)nc(OC)c3C(=O)N2)on1"
reported_measurement = 394

[[record]]
compound = "CC(C)C[C@H]1C(=O)N(C)C2(CC(F)(F)C2)C(=O)N[C@H](Cc2ccccc2)COc2cnc3ccc(F)cc3c2C(=O)N[C@H](C(=O)NCCc2nc(C3CC3)no2)CC(=O)N1C"
reported_measurement = 271

[[record]]
compound = "Cc1cc2c3c(ccc2cn1)OC[C@@H](Cc1ccccc1)NC(=O)[C@@H](CC(F)F)N(C)C(=O)[C@H](CC(C)C)N(C)C(=O)C[C@@H](C(=O)NCCn1nnc(C2CC2)n1)NC3=O"
reported_measurement = 485

[[record]]
compound = "CC(C)C[C@H]1C(=O)N(C)[C@H](CC(F)F)C(=O)N[C@H](Cc2ccccc2)COc2ccc3ncc(F)cc3c2C(=O)N[C@H](C(=O)NCCn2nnc(C3CC3)n2)CC(=O)N1C"
reported_measurement = 394

[[record]]
compound = "COc1cc(CCNC(=O)[C@@H]2CC(=O)N(C)[C@@H](CC(C)C)C(=O)N(C)[C@H](Cc3nc(C(F)(F)F)no3)C(=O)N[C@H](Cc3ccccc3)COc3ccc4cnc(C)cc4c3C(=O)N2)on1"
reported_measurement = 440

[[record]]
compound = "COc1nccc2c1C(=O)N[C@H](C(=O)NCCc1noc(C3CC3)n1)CC(=O)N(C)[C@@H](CC(C)C)C(=O)N1CCCCC[C@@H]1C(=O)N[C@H](Cc1ccccc1)CO2"
reported_measurement = 326

[[record]]
compound = "COc1nc(C)cc2c1C(=O)N[C@H](C(=O)NCCc1cc(C)no1)CC(=O)N(C)[C@@H](CC(C)C)C(=O)N(C)[C@H](C(C)(C)C)C(=O)N[C@H](Cc1ccccc1)CO2"
reported_measurement = 324

[[record]]
compound = "COc1cc(C[C@@H]2C(=O)N[C@H](Cc3ccccc3)COc3ccnc(OC)c3C(=O)N[C@H](C(=O)NCCc3noc(C4CC4)n3)CC(=O)N(C)[C@@H](CC(C)C)C(=O)N2C)on1"
reported_measurement = 384

[[record]]
compound = "COc1cc(CCNC(=O)[C@@H]2CC(=O)N(C)[C@@H](CC(C)C)C(=O)N(C)[C@H](Cc3nc(C(F)(F)F)no3)C(=O)N[C@H](Cc3ccccc3)COc3cnc4ccc(F)cc4c3C(=O)N2)on1"
reported_measurement = 391

[[record]]
compound = "Cc1cc2c(c3cccnc13)C(=O)N[C@H](C(=O)NCCn1nnc(C3CC3)n1)CC(=O)N(C)[C@@H](CC(C)C)C(=O)N1CCCC[C@@H]1C(=O)N[C@H](Cc1ccccc1)CO2"
reported_measurement = 410

